I'd be grateful if you could share measured IC50 for these entries.
- Test system: CEM-SS
- assay_name: Concentration inhibiting HIV-1 induced cytopathic effects in human T-lymphoblastic cells(CEM-SS) and essentially halted HIV-1 replication.
- Assay type: functional, cell-based
Reply numerically in µM, unit not repeated.

query: Tell me the measured IC50 of CCCc1cc(=O)oc2c3c(c4c(c12)OC(C)(C)C=C4)O[C@H](C)[C@@H](C)[C@@H]3OC(C)=O , please.
result: 13

query: Tell me the measured IC50 of CCCc1cc(=O)oc2c3c(c4c(c12)OC(C)(C)C=C4)O[C@H](C)[C@@H](C)[C@@H]3O [CALANOLIDE A] , please.
result: 20

query: Tell me the measured IC50 of CCCc1cc(=O)oc2c3c(c4c(c12)OC(C)(C)C=C4)O[C@H](C)[C@@H](C)[C@H]3OC , please.
result: 19

query: Tell me the measured IC50 of CCCc1cc(=O)oc2c3c(c4c(c12)OC(C)(C)C=C4)O[C@H](C)[C@@H](C)[C@@H]3OC , please.
result: 21

Taken from ChEMBL document CHEMBL1125492.
